biological target: T1, human CCR8 (human, UniProt P51685 1-355); test: flow blocking, PBMC CCR8+CD4+; competitor PE-AB1
T1 construct: Native CCR8 on human PBMC (CCR8+ CD3+ or CCR8+ CD4+ lymphocytes); also called chemokine (C-C motif) receptor 8
T1 sequence (P51685 whole entry): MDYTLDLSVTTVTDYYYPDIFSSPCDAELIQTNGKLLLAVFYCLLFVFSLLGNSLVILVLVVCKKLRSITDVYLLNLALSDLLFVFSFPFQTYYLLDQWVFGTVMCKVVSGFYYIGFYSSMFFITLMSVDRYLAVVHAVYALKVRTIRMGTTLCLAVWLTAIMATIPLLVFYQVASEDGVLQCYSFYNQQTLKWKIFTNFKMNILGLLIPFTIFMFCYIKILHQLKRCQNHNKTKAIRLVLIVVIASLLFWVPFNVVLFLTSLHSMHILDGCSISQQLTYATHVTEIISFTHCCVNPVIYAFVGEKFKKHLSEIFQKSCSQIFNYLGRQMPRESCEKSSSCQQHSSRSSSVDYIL
TEST READOUT: % Blocking (%)
Return type: number; implicit unit %.

Recorded % Blocking, per entry:
Lab book: % Blocking of AB12 (antibody, V domains shown, Hybridoma monoclonal; also called antibody 12; clone 12) VH: EVQLVESGGGLVQPKGSLKLSCAASGFAFNTYAMNWVRQAPGKGLEWIARLRSKSNFYATYYADSVKDRFTISRDDSQSMLYLQMNNLKTEDTAVYYCVRGRELGPSYAMDYWGQGTSVTVSS VL: DIVMTQAAPSVPVTPGESVSISCRSSKSLLHSNGNTYLYWFLQRPGQSPQLLIYRMSNLASGVPDRFSGSGSGTAFTLRISRVEAEDVGVYYCMQHLEYPYTFGGGTKLEIK noted as -29.7

Lab book: % Blocking of AB11 (antibody, V domains shown, Hybridoma monoclonal; also called antibody 11; clone 11) VH: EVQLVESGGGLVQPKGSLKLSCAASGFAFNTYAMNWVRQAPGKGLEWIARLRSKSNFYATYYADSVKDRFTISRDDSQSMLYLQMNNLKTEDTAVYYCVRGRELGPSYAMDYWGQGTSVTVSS VL: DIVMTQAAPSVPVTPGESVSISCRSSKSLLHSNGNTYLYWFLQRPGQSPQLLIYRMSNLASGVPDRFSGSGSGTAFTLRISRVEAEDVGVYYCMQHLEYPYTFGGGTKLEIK noted as -31.6

Lab book: % Blocking of AB5 (antibody, V domains shown, Hybridoma monoclonal; Same VH/VL entries as AB6; also called antibody 5; clone 5) VH: QVQLKESGPGLVQPSQTLSLTCTVSGFSLTSYHVSWVRQPPGKGLEWMGVIWTGGSTTYNSLLKSRLSISRDISKSQVFLKMNSLQTEDTATYYCARGGTVVKGGFAYWGQGTLVTVSS VL: DIQMTQSPASLSASLEEIVTITCQASQDIGNRLSWYQQKPGKSPQLLIYGATSLADGVPSRFSGSRSGTQYSLKISRLQVEDIGIYYCLQAYSTPLTFGSGTKLEIK noted as 72.3

Lab book: % Blocking of AB1 (antibody, V domains shown, Hybridoma monoclonal (mouse or rat); Same VH/VL entries as AB2; also called antibody 1; clone 1) VH: QVQLKESGPGLVKPSETLSLTCTVSGFSLTSYHISWVRQPPGKGLEWMGVIWGDGSKTYNSALKSRLSISRDTSKSQVFLKMRSLKTEDTATYYCARGGDSGFAYWGQGTLVTVSS VL: DIQMTQSPASLSASLEEIVTITCQASQDIGNWLSWYQQKPGKSPQLLIYGTTNLADGVPSRFSGSRSGTQYSLKISRLQVEDIGIYYCLQAYSVPLTFGSGTKLEIK noted as 98.7

---
Lab book: % Blocking of AB15 (antibody, V domains shown, Hybridoma monoclonal; Same VH/VL entries as AB14; also called antibody 15; clone 15) VH: EVQLVESGGGLVQPKGSLKLSCAASGFTFNTYAMNWVRQAPGKGLEWVARIRSKSNNYATYYVDSVKDRFTISRDDSQSMLYLQINNLKTEDTAMYYCVRGRELGPYSAMDYWGQGTSVTVSS VL: DIVMTQAAPSVPVTPGESVSISCRSSKSLLHSNGNTYLYWFLQRPGQSPQLLIYRMSNLASGVPDRFSGSGSGTAFTLRISRVEAEDVGLYYCMQHLEYPFTFGGGTKLEIK noted as -38.7
